# Test system: Pseudomonas aeruginosa
# ASSAY: In vivo activity in murine against Pseudomonas aeruginosa 5712 infection after sc administration.
# Type: functional
# RUN_CONDITIONS: Pseudomonas aeruginosa, sc; read-out: ED50
ED50 values by entry

Reference set (3 entries):
[[record]]
substance_smiles = "CC(C)(O/N=C(\\C(=O)N[C@@H]1C(=O)N2C(C(=O)[O-])=C(C[N+]3(C)CCN(c4c(F)cc5c(=O)c(C(=O)O)cn(CCF)c5c4F)CC3)CS[C@H]12)c1csc(N)n1)C(=O)O"
observed_measurement = "> 250 mg/kg"

[[record]]
substance_smiles = "CO/N=C(\\C(=O)N[C@@H]1C(=O)N2C(C(=O)O)=C(COC(C)=O)CS[C@H]12)c1csc(N)n1"
observed_measurement = "> 250 mg/kg"

[[record]]
substance_smiles = "CO/N=C(\\C(=O)N[C@@H]1C(=O)N2C(C(=O)[O-])=C(C[N+]3(C)CCN(c4c(F)cc5c(=O)c(C(=O)O)cn(CCF)c5c4F)CC3)CS[C@H]12)c1csc(N)n1"
observed_measurement = "> 250 mg/kg"


Lab note: next compound to report on.
The recorded ED50 for entry `CC(C)(O/N=C(\C(=O)N[C@@H]1C(=O)N2C(C(=O)[O-])=C(C[n+]3ccccc3)CS[C@H]12)c1csc(N)n1)C(=O)O` equals 217 mg/kg
